test system: velvetleaf (Abutilon theophrasti); test: Preemergence herbicidal activity; assay type: in vivo; settings: Abutilon theophrasti, 504 h; Table 6 (headed Post-emergent; text: preemergence); rate 560 ppm; after 3 weeks; read-out: % Control ABUTH
readout type: pest or weed control at 560 ppm
Quick note: number first, unit second.

Query :: Which pest or weed control at 560 ppm is reported for this compound? "Nc1c(Cl)c(C(=O)O)nc(Cl)c1Br"
Result :: 100%

Query :: Which pest or weed control at 560 ppm is reported for this compound? "COc1c(Cl)nc(C(=O)O)c(Cl)c1N"
Result :: 100%

Query :: Which pest or weed control at 560 ppm is reported for this compound? "Nc1c(F)c(Br)nc(C(=O)O)c1F"
Result :: 0%

Query :: Which pest or weed control at 560 ppm is reported for this compound? "Nc1cc(Oc2cccc(Cl)c2)nc(C(=O)O)c1Cl"
Result :: 100%

Query :: Which pest or weed control at 560 ppm is reported for this compound? "Cc1cccc(Oc2cc(N)c(Cl)c(C(=O)O)n2)c1"
Result :: 50%

Query :: Which pest or weed control at 560 ppm is reported for this compound? "NC(=O)c1nc(Cl)cc(N)c1Cl"
Result :: 85%

Query :: Which pest or weed control at 560 ppm is reported for this compound? "CCCCNc1cc(Cl)nc(C(=O)O)c1Cl"
Result :: 100%

Query :: Which pest or weed control at 560 ppm is reported for this compound? "Nc1cc(Br)nc(C(=O)O)c1Cl"
Result :: 100%

Query :: Which pest or weed control at 560 ppm is reported for this compound? "Nc1c(F)c(Cl)nc(C(=O)O)c1Cl"
Result :: 100%

Query :: Which pest or weed control at 560 ppm is reported for this compound? "Nc1cc(Cl)nc(C(=O)O)c1Br"
Result :: 100%

Query :: Which pest or weed control at 560 ppm is reported for this compound? "Nc1c(Cl)c(C(=O)O)nc(Cl)c1C(F)(F)F"
Result :: 80%

Source listed as patent US20010047099A1.
